Biological target: HLA-A*02:01 (Homo sapiens, UniProt P04439, D140Y/D185E/D98H/E176V/E277Q/G131W/G231S/I119V/I121R/I166T/I218V/L300P/L318F/N151K/N90K/P208A/P217A/Q86G/Q94H/R138H/R169H/T345S)
Assay: MHC binding assay (UV-ligand exchange, β2m ELISA, peptide exchange yield)
Conditions: binding of HLA-class I restricted peptides to HLA-A*02:01, UV-ligand exchange
MEASURED METRIC: Peptide exchange (MHC class I binding score, peptide exchange yield)

• 242 (AIAYILQGV; listed as Homo sapiens) [compound 242] = “++” (≥20% = ++)
• 486 (AVMESIQGV; listed as Homo sapiens) [compound 486] = “+++” (≥50 = +++)
• 519 (GLLHLTLLL; listed as Homo sapiens) [compound 519] = “+++” (≥50 = +++)
• 390 (ALFMKQIYL; listed as Homo sapiens) [compound 390] = “+++” (≥50 = +++)
• 24 (SLSDGLEEV; listed as Homo sapiens) [compound 24] = “++” (≥20% = ++)
• 341 (SQIALNEKLVNL; listed as Homo sapiens) [compound 341] = “+++” (≥50 = +++)
• 397 (YLFGERLLEC; listed as Homo sapiens) [compound 397] = “+++” (≥50 = +++)

Now examine the next entry.
Give its Peptide exchange (MHC class I binding score, peptide exchange yield) value. Item: 228 (AMQEYIAVV; listed as Homo sapiens) [compound 228]
“++” (≥20% = ++)

====

Biological target: HLA-A*02:01 (Homo sapiens, UniProt P04439, D140Y/D185E/D98H/E176V/E277Q/G131W/G231S/I119V/I121R/I166T/I218V/L300P/L318F/N151K/N90K/P208A/P217A/Q86G/Q94H/R138H/R169H/T345S)
Test: MHC binding assay (UV-ligand exchange, β2m ELISA, peptide exchange yield)
Conditions: binding of HLA-class I restricted peptides to HLA-A*02:01, UV-ligand exchange
MEASURED METRIC: Peptide exchange (MHC class I binding score, peptide exchange yield)

Sample answers from the record:
• 453 (KLLEATSAV; listed as Homo sapiens) [compound 453] = “++” (≥20% = ++)
• 475 (LLLNEEALAQI; listed as Homo sapiens) [compound 475] = “+++” (≥50 = +++)
• 525 (VLLEAGEGLVTI; listed as Homo sapiens) [compound 525] = “+++” (≥50 = +++)
• 157 (SLNDEVPEV; listed as Homo sapiens) [compound 157] = “++” (≥20% = ++)

Give its Peptide exchange (MHC class I binding score, peptide exchange yield) value. Item: 442 (GLLGGGGVLGV; listed as Homo sapiens) [compound 442]
“+++” (≥50 = +++)

====

Biological target: HLA-A*02:01 (Homo sapiens, UniProt P04439, D140Y/D185E/D98H/E176V/E277Q/G131W/G231S/I119V/I121R/I166T/I218V/L300P/L318F/N151K/N90K/P208A/P217A/Q86G/Q94H/R138H/R169H/T345S)
Assay: MHC binding assay (UV-ligand exchange, β2m ELISA, peptide exchange yield)
Conditions: binding of HLA-class I restricted peptides to HLA-A*02:01, UV-ligand exchange
MEASURED METRIC: Peptide exchange (MHC class I binding score, peptide exchange yield)

Sample answers from the record:
- 130 (FLWNGEDSALL; listed as Homo sapiens) [compound 130]: “+++” (≥50 = +++)
- 97 (SLINGSFLV; listed as Homo sapiens) [compound 97]: “+++” (≥50 = +++)
- 238 (YLISFQTHI; listed as Homo sapiens) [compound 238]: “+++” (≥50 = +++)
- 538 (LLLAHIIAL; listed as Homo sapiens) [compound 538]: “++” (≥20% = ++)
- 510 (KLYSVVSQL; listed as Homo sapiens) [compound 510]: “++” (≥20% = ++)

Give its Peptide exchange (MHC class I binding score, peptide exchange yield) value. Item: 619 (ALQDRVPLA; listed as Homo sapiens) [compound 619]
“+++” (≥50 = +++)

Give its Peptide exchange (MHC class I binding score, peptide exchange yield) value. Item: 276 (ALFTFSPLTV; listed as Homo sapiens) [compound 276]
“+++” (≥50 = +++)

Give its Peptide exchange (MHC class I binding score, peptide exchange yield) value. Item: 395 (ALALGGIAVV; listed as Homo sapiens) [compound 395]
“++++” (≥75% = ++++)
